Origin of measurements: the supplement of paper PMC10567573

B1: PDZK1 (parent)
chain: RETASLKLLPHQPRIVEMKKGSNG

Variants of: B1
Assay: protein stability index of a GFP-peptide fusion (GPS, HEK-293T) (PSI 1-6); higher = more stable;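 note: lentivirally expressed fusions sorted by FACS into six bins by GFP to DsRed ratio, PSI derived from sequencing read proportions per bin multiplied by bin number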
Conditions: c terminus: a fixed tail appended
Measured quantity: protein stability index
// return a plain number; no unit text

Given K7L , state its recorded protein stability index. 3.98

Given L8A , state its recorded protein stability index. 3.56

Given N23E , state its recorded protein stability index. 4.45

Given R14E , state its recorded protein stability index. 4.07

Given M18Q , state its recorded protein stability index. 4.58
